measurement.target: MMP-9 (Homo sapiens, UniProt P14780)
Construct: made in house; host or cells: MMP-9-transfected HT1080 cells (spent media)
Sequence (P14780 107-707 limits assumed): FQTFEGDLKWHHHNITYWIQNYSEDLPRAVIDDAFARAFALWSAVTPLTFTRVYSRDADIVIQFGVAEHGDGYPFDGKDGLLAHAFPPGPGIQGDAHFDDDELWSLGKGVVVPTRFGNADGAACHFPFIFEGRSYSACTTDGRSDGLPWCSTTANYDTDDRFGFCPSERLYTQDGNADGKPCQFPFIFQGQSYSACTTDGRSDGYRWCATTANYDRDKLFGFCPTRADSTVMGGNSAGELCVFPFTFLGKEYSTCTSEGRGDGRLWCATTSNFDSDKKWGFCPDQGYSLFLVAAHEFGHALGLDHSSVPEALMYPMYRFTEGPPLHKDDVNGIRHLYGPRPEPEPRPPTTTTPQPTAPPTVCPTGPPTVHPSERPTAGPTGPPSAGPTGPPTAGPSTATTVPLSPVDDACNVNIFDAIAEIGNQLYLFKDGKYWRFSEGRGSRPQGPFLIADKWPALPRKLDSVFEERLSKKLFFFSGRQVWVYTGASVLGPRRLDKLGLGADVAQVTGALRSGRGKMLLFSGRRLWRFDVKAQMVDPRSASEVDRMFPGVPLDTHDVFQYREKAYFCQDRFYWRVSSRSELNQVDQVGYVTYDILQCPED
run.description: In vitro MMP inhibition, Ki determination (fluorogenic substrate II)
Type: biochemical
condition.info: value not in parenthesis
Below, each of the compounds is paired with its reported Ki value.
readout: Ki (nM)

1. COCCN1CCC(C(=O)NO)(S(=O)(=O)N2CCN(c3ccc(OC(F)(F)F)cc3)CC2)CC1 | 4.67
2. CC(C)Cc1ccc(N2CCN(S(=O)(=O)C3(C(=O)NO)CCOCC3)CC2)c(F)c1 | 82.4
3. O=C(NO)C1(S(=O)(=O)N2CCN(c3ccc(OC4CCC4)c(F)c3)CC2)CCOCC1 | 7.97
4. O=C(NO)C1(S(=O)(=O)N2CCN(c3ccc(OCc4ccccc4)cn3)CC2)CCOCC1 | 4.8
5. O=C(NO)C1(S(=O)(=O)N2CCN(c3ncc(Br)cn3)CC2)CCOCC1 [Example 104] | 11.9
6. CCCCOc1ccc(N2CCN(S(=O)(=O)C3(C(=O)NO)CCN4CCCC4C3)CC2)cc1F (stereo not shown) | 19
7. CCCCOc1ccc(N2CCN(S(=O)(=O)C3(C(=O)NO)CCN(c4ncccn4)CC3)CC2)cc1 | 1.93
8. CCCCCCCCCc1cnc(N2CCN(S(=O)(=O)C3(C(=O)NO)CCOCC3)CC2)nc1 [Example 111] | 30.6
9. CCCCOc1ccc(N2CCN(S(=O)(=O)C3(C(=O)NO)CCN(C(=O)N4CCN(C)CC4)CC3)CC2)cc1 | 0.87
10. CCCCCc1ccc(N2CCN(S(=O)(=O)C3(C(=O)NO)CCN(S(C)(=O)=O)CC3)CC2)cc1 | 2.79
11. CCCCOc1ccc(N2CCN(S(=O)(=O)C3(C(=O)NO)CCN(C(=S)N(C)C)CC3)CC2)cc1 | 2.72
12. C=CCCOC(=O)N1CCC(C(=O)NO)(S(=O)(=O)N2CCN(c3ccc(OCCCC)cc3)CC2)CC1 | 3.8
13. CCCNC(=O)c1ccc(N2CCN(S(=O)(=O)C3(C(=O)NO)CCN(CCOC)CC3)CC2)cc1 | 440
14. CCCCc1nnc(N2CCN(S(=O)(=O)C3(C(=O)NO)CCOCC3)CC2)s1 | 220
15. CCCCOc1ccc(N2CCN(S(=O)(=O)C3(C(=O)NO)CCN(c4ccc(N(C)C)cc4)CC3)CC2)cc1 | 4.74
16. O=C(NO)C1(S(=O)(=O)N2CCN(c3ncccn3)CC2)CCOCC1 [Example 107] | 153

====

Below, each of the compounds is paired with its reported Ki value.
measurement.target: MMP-9 (Homo sapiens)
Construct: made in house; host or cells: MMP-9-transfected HT1080 cells (spent media)
run.description: In vitro MMP inhibition, Ki determination (fluorogenic substrate II)
Format: biochemical
condition.info: value outside parentheses
readout: Ki (nM)

1) CCCCCCCOC1CCN(S(=O)(=O)C2(C(=O)NO)CCOCC2)CC1 [Example 406] | 0.76
2) O=C(NO)C1(S(=O)(=O)N2CCN(c3cccc(OCCCC(F)(F)F)c3)CC2)CCOCC1 [Example 355] | 638
3) CCCCOc1ccc(N2CCN(S(=O)(=O)C3(C(=O)NO)CCN(Cc4cccnc4)CC3)CC2)cc1F [Example 293] | 2.21
4) O=C(NO)C1(S(=O)(=O)N2CCC(c3ccc(OC(F)(F)C(F)F)cc3)CC2)CCOCC1 [Example 337] | 0.792
5) CCCCOc1ccc(N2CCN(S(=O)(=O)C3(C(=O)NO)CCN(C4CC4)CC3)CC2)cc1 [Example 301] | 9.11
6) CCCCCc1ccc(-c2cnc(N3CCN(S(=O)(=O)C4(C(=O)NO)CCOCC4)CC3)s2)cc1 [Example 380] | 16.2
7) COCCN1CCC(C(=O)NO)(S(=O)(=O)N2CCC(c3ccc(CCC(F)(F)F)cc3)CC2)CC1 [Example 309] | 0.102

Taken from patent US20050209278A1.
